The reported measurements were obtained from ChEMBL document CHEMBL1139642.

system: Sindbis virus; assay: Effective concentration resulting in a 50% reduction in virus production in BHK cells; format: functional, organism-based
measurement-type: EC50

* O=C(C[C@@H]1COCCO1)C[C@@H]1COCCO1 | > 100 µM
* C(C[C@@H]1COCCO1)C[C@@H]1COCCO1 | 40 µM
* c1ccc(CCCC[C@@H]2COCCO2)cc1 | > 100 µM

Ask | Look up EC50 for this compound: OC[C@@H]1COCCO1
Reply | 1 µM

---

test: Cytotoxic concentration for 50% growth inhibition of uninfected BHK cells; assay type: cell-based, Mesocricetus auratus; conditions: hamster
measurement-type: CC50

Reference set, count: 3
- OC[C@@H]1COCCO1: > 1000 µM
- c1ccc(CCCC[C@@H]2COCCO2)cc1: 600 µM
- O=C(C[C@@H]1COCCO1)C[C@@H]1COCCO1: > 1000 µM

Ask | # lookup: CC50 of C(C[C@@H]1COCCO1)C[C@@H]1COCCO1
Reply | > 1000 µM
